B1: FAM50A (parent)
chain: HIFPASRWEPYDPEKKWDKYTIR

# Variants of: B1
# TEST METHOD NOTES: protein stability index of a GFP-peptide fusion (GPS, HEK-293T) (PSI 1-6); higher = more stable;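 note: lentivirally expressed fusions sorted by FACS into six bins by GFP to DsRed ratio, PSI derived from sequencing read proportions per bin multiplied by bin number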
# CONDITIONS USED: c terminus: native
Recorded protein stability index by entry
READOUT KIND: protein stability index

HIFPASRWEYYDPEKKWDKYTIR [P10Y]    2.89
AIFPASRWEPYDPEKKWDKYTIR [H1A]    1.75
HIFPASRWEPYDPEKKHDKYTIR [W17H]    2.42
HIFPASRWEPYDPEAKWDKYTIR [K15A]    2.23
HIFPASRWEPYDPESKWDKYTIR [K15S]    2.67
HIFPASRWEPYDPEKYWDKYTIR [K16Y]    1.66
HIFPASRWEPYDPEKKADKYTIR [W17A]    2.45
HIFPASRWEPYDPEKKWDKCTIR [Y20C]    1.77
HIFPASRWEPYDPEKKWDTYTIR [K19T]    3.02
HIFPASRWEPYDPEKWWDKYTIR [K16W]    1.92
HIFPASRWEPYDPEKKWDKYLIR [T21L]    2.32
HIFPASRWEPYDPEKKWDKYQIR [T21Q]    2.18
HIFPASRWEPYDPEKKWDKITIR [Y20I]    1.49
HIFPASRWEPYDPEKKWRKYTIR [D18R]    2.01
HIFRASRWEPYDPEKKWDKYTIR [P4R]    2.13
HIFPASRWEPNDPEKKWDKYTIR [Y11N]    2.67
HFFPASRWEPYDPEKKWDKYTIR [I2F]    2.33
HIFPASAWEPYDPEKKWDKYTIR [R7A]    2.34
HIFPASRWEPLDPEKKWDKYTIR [Y11L]    2.27
HIFPASRWEPYDPEKKWDKYTIE [R23E]    2.04
HIFQASRWEPYDPEKKWDKYTIR [P4Q]    1.77
HIFPASRWEPYDPIKKWDKYTIR [E14I]    2.68
HIFPASRWEPYDPEKKNDKYTIR [W17N]    2.54
HIFPASRWEPYDPEEKWDKYTIR [K15E]    1.66
HIFPASRWEPYDPEKKWDKYTIT [R23T]    1.87
HIFPASRWEPYDPETKWDKYTIR [K15T]    2.33
HIFPASRWEPYDPEKKWDKYTTR [I22T]    2.62
QIFPASRWEPYDPEKKWDKYTIR [H1Q]    2.5
HIFPASRWERYDPEKKWDKYTIR [P10R]    2.7
HIFPASRWEPYDNEKKWDKYTIR [P13N]    2.05
HIFPASRWEPYDPEKKWDKYTIP [R23P]    3.67
HIFPASSWEPYDPEKKWDKYTIR [R7S]    3.31
HIFPASRWEPYDPEKKWDHYTIR [K19H]    2.03
HIFVASRWEPYDPEKKWDKYTIR [P4V]    1.79
RIFPASRWEPYDPEKKWDKYTIR [H1R]    2.34
HIFPASRWEPYDPEKKWDKYTRR [I22R]    1.59
HIFPASRWLPYDPEKKWDKYTIR [E9L]    2.42
HIFPAWRWEPYDPEKKWDKYTIR [S6W]    2
HIFPASRWEPYDPEKKWDYYTIR [K19Y]    1.35
HIFPASRWEPYDPEKKKDKYTIR [W17K]    2.57
HIFPASQWEPYDPEKKWDKYTIR [R7Q]    2.47
HIFPASRWEPYDPEKKMDKYTIR [W17M]    2.61
HIFPASRWEPYSPEKKWDKYTIR [D12S]    2.49
HHFPASRWEPYDPEKKWDKYTIR [I2H]    2.41
HIFMASRWEPYDPEKKWDKYTIR [P4M]    1.59
HIFPKSRWEPYDPEKKWDKYTIR [A5K]    2.31
HSFPASRWEPYDPEKKWDKYTIR [I2S]    2.83
HIFPAMRWEPYDPEKKWDKYTIR [S6M]    2.48
HIKPASRWEPYDPEKKWDKYTIR [F3K]    2.47
HIFPASHWEPYDPEKKWDKYTIR [R7H]    2
HIFPASRWEPYDPEKKWNKYTIR [D18N]    4.48
HIFPQSRWEPYDPEKKWDKYTIR [A5Q]    3.48
HIFPASRWEPYDPEKKWDKYGIR [T21G]    2.38
HIFPASRWEPYDPEKKLDKYTIR [W17L]    2.37
HIFPASRWEPYDPEKKWDKYSIR [T21S]    1.89
KIFPASRWEPYDPEKKWDKYTIR [H1K]    1.08
HIFPASRWEPYDPECKWDKYTIR [K15C]    3.43
HIFPASRWEPYDPEKIWDKYTIR [K16I]    1.54
HIFPASRWEPVDPEKKWDKYTIR [Y11V]    2.67
HIFPAERWEPYDPEKKWDKYTIR [S6E]    3.04
HIFPASRWEPYDPAKKWDKYTIR [E14A]    2.66
HIFPADRWEPYDPEKKWDKYTIR [S6D]    1.87
HIFPASRPEPYDPEKKWDKYTIR [W8P]    3.92
HIFPASRWEPYDKEKKWDKYTIR [P13K]    2.25
HIFPASRWEPYDPEKKWDKVTIR [Y20V]    2.28
